Give cAMP EC50 for every item shown.
Target: T1, rat GLP-1 receptor (rat, UniProt P32301 22-463)
T1 sequence (looked up): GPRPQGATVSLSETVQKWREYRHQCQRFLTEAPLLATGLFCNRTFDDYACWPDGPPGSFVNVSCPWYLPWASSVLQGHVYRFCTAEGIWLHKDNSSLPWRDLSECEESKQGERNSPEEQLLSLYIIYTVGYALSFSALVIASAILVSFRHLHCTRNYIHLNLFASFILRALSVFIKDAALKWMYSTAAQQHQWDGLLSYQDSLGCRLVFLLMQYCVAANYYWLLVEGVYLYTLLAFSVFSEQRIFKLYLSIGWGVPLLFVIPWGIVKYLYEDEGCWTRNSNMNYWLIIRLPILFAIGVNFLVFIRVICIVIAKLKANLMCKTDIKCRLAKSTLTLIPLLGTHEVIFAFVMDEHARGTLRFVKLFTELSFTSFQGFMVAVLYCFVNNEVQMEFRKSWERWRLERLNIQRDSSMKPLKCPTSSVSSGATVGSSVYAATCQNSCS
Experiment: cell-based or functional assay
The response must be a number in pM with no trailing unit.

Entry IP317 (Fc fusion) YSEGTFTSDVSSYLEKQAIDEFIAWLLKGGAAAGGSGSTASSGSGSATGGGGAATHTCPPC : reported cAMP EC50 = ?
12

I have this binder here, IP390 (Fc fusion) YSEGTFTSDYSKLLEEEAVRLFIEWLVKGPGGGGGSGGGGSGGGGSGGGGSGGGGSACPPC , and I need its recorded cAMP EC50.
24

What cAMP EC50 value was documented for this binder, IP213 (Fc fusion) YSEGTFTSDYSKLLEEEAVRLFIEWLLAGGAAAGGSGSTASSGSGSATGGGGAATHTCPPCPAPEF ?
87

Field request: cAMP EC50 | item: IP237 (Fc fusion) YSEGTFTSDYSKLLEEEAVRLFIEWLVKGPGGGGGSGGGGSGGGGSGGGGSATHTCPPCPAPEF
23

Record request: cAMP EC50 value, item IP361 (Fc fusion) YSEGTFTSDYRILKEEEAVRLFIEWLLAGGGGGGSGGGGSGGGGSGGGGSATHTCPPC
18000

Item under review: IP400 (Fc fusion) YSEGTHTSDLSKLLEEEAVRLFIEWLLAGGGGGGSGGGGSGGGGSGGGGSATHTCPPC . Reported cAMP EC50?
190

Requested field: cAMP EC50. Item: IP325 (Fc fusion) YSEGTFTSDYSKLLEEEAVRLFIEWLVKGPGGGGGSGGGGSGGGGSGGGGSGGGGSGGGGSGGGGSGGGGSA
35
